EXPERIMENTAL_SYSTEM: Acetylcholinesterase (Homo sapiens)
PROCEDURE_TEXT: Ratio of k2/k-2 for acetylcholinesterase
REPORTED_ENDPOINT: Ratio
Output spec: single numeric token, no unit.

// query # Ratio lookup, item CCCCNC(=O)OCCCCCO
// result 2

// query Please give the result for CCCCNC(=O)OCCO too.
// result 1.5

---

PROCEDURE_TEXT: Carbamylation rate constant was determined
REPORTED_ENDPOINT: kc

Would you please look over these solved cases?
CCCCNC(=O)OCCCCCCCCOC(=O)NCCCC	4 10e-3 1/s
CCCCNC(=O)OCCO	3.1 10e-3 1/s
CCCCNC(=O)OCCCCCCCCCCCCCCO	4.6 10e-3 1/s
CCCCNC(=O)OCCCCCCCCCCCCCCOC(=O)NCCCC	4.9 10e-3 1/s
CCCCNC(=O)OCCCCCCCCO	3.6 10e-3 1/s
CCCCNC(=O)OCCCCCCCCCCO	3.9 10e-3 1/s

// query # kc lookup, item CCCCNC(=O)OCCCCCCCCCCCCO
// result 4.1 10e-3 1/s

// query Please give the result for CCCCNC(=O)OCCCCCCCCCCOC(=O)NCCCC too.
// result 4.1 10e-3 1/s

// query Please give the result for CCCCNC(=O)OCCOC(=O)NCCCC too.
// result 3 10e-3 1/s

---

The following compounds are listed with their measured k2 values.
EXPERIMENTAL_SYSTEM: Acetylcholinesterase (Homo sapiens, UniProt P22303)
Sequence (P22303 whole entry): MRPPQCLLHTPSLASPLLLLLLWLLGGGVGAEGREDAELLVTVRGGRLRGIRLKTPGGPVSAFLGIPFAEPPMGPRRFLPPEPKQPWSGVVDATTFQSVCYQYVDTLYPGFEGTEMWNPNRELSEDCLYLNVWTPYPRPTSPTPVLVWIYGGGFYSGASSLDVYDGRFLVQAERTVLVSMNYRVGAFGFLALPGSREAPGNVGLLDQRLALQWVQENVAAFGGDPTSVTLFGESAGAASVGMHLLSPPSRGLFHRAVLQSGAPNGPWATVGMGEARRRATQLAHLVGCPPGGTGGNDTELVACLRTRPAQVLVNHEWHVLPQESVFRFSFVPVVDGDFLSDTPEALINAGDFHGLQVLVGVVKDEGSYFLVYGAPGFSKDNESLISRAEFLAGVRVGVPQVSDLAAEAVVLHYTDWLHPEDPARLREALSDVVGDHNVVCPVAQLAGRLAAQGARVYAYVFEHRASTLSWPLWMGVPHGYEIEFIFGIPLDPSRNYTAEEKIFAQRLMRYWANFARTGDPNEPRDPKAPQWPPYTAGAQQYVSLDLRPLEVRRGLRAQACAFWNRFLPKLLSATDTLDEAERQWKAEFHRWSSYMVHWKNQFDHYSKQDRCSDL
PROCEDURE_TEXT: Kinetic constant (k2) for acetylcholinesterase

CCCCNC(=O)OCCCCCCCCCCCCCCO	5.3 10e-3 1/s
CCCCNC(=O)OCCCCCCCCCCO	7.6 10e-3 1/s
CCCCNC(=O)OCCCCCCCCCCCCCCCCOC(=O)NCCCC	6.1 10e-3 1/s
CCCCNC(=O)OCCCCCCCCOC(=O)NCCCC	4.2 10e-3 1/s
CCCCNC(=O)OCCOC(=O)NCCCC	2.8 10e-3 1/s

// query API: value(readout= k2, system= Acetylcholinesterase (Homo sapiens, UniProt P22303), query= CCCCNC(=O)OCCCCCCCCCCCCOC(=O)NCCCC )
// result 5 10e-3 1/s

// query Please give the result for CCCCNC(=O)OCCCCCO too.
// result 8.1 10e-3 1/s

---

EXPERIMENTAL_SYSTEM: UniProtKB P22303
PROCEDURE_TEXT: Kinetic constant (k-2) for acetylcholinesterase
REPORTED_ENDPOINT: k-2

CCCCNC(=O)OCCCCCCCCOC(=O)NCCCC	1.6 10e-3 1/s

// query API: value(readout= k-2, system= UniProtKB P22303, query= CCCCNC(=O)OCCO )
// result 5 10e-3 1/s

// query Please give the result for CCCCNC(=O)OCCCCCCCCCCCCCCOC(=O)NCCCC too.
// result 2.4 10e-3 1/s

// query Please give the result for CCCCNC(=O)OCCCCCCCCCCCCCCCCOC(=O)NCCCC too.
// result 3.1 10e-3 1/s

// query Please give the result for CCCCNC(=O)OCCCCCCCCCCO too.
// result 3.1 10e-3 1/s

// query Please give the result for CCCCNC(=O)OCCCCCCCCCCCCO too.
// result 4 10e-3 1/s

// query Please give the result for CCCCNC(=O)OCCCCCO too.
// result 5 10e-3 1/s

// query Please give the result for CCCCNC(=O)OCCCCCOC(=O)NCCCC too.
// result 0.62 10e-3 1/s

// query Please give the result for CCCCNC(=O)OCCOC(=O)NCCCC too.
// result 0.35 10e-3 1/s

// query Please give the result for CCCCNC(=O)OCCCCCCCCCCOC(=O)NCCCC too.
// result 2 10e-3 1/s

// query Please give the result for CCCCNC(=O)OCCCCCCCCCCCCOC(=O)NCCCC too.
// result 2.2 10e-3 1/s

// query Please give the result for CCCCNC(=O)OCCCCCCCCCCCCCCO too.
// result 4 10e-3 1/s

// query Please give the result for CCCCNC(=O)OCCCCCCCCO too.
// result 3 10e-3 1/s

// query Please give the result for CCCCNC(=O)OCCCCCCCCCCCCCCCCO too.
// result 3 10e-3 1/s

These entries and their values trace back to ChEMBL document CHEMBL1141982.
